Quick reference: Factor Xa clotting activity in NHP (0.15 nM factor Xa) of the listed items.
Measurement target: human activated Factor X (Xa) (human)
No end group written: not given here.
Result type: Factor Xa clotting activity in NHP (0.15 nM factor Xa) (%)

1. VKFTIRVFNPRNLKI-NH2 [control peptide with a randomized sequence of residues 311-325]	30
2. MHKLREGKWRPKSR-NH2 [scrambled peptide with a randomized sequence of residues 142-155]	37
